biological target: human CA-IX (Homo sapiens, UniProt Q16790); construct: purchased Acro CA9-H82E3; test: Surface Plasmon Resonance (SPR) binding kinetics to recombinant human CA-IX (Biacore 8K, single-cycle kinetics, 1:1 binding model); conditions: Chelated Metal: Lu-175; SPR, 25° C., pH 7.4; read-out: CAIX KD
pKd: −log10 of the molar value.
readout.label: pKd

The following molecules have reported results that may help.
CC(CCCOc1cc(NC(CC(=O)N[C@@H](CCCCn2cc(CCCC(=O)Nc3nnc(S(N)(=O)=O)s3)nn2)C(=O)NCCOCCOCCNC(=O)CN2CCN(CC(=O)O)CCN(CC(=O)O)CCN(CC(=O)O)CC2)C(=O)O)cc(C(=O)O)c1)(c1ccc(O)cc1)c1ccc(O)cc1.[Lu+3] (stereo partly shown) [Compound 102.7]    > 9.00
NS(=O)(=O)c1nnc(NC(=O)C23CC(c4cn(CCNC(=O)[C@H]5CN(C(=O)CN6CCN(CC(=O)O)CCN(CC(=O)O)CCN(CC(=O)O)CC6)CCN5C(=O)[C@@H]5COCCN5C(=O)Cc5n[nH]c6ccccc56)nn4)(C2)C3)s1.[Lu+3] [Compound 107.18]    8.00 to 8.60
CC(CCC(=O)N1CCNC[C@H]1C(=O)N[C@@H](CC(=O)N1CCN(C(=O)CN2CCN(CC(=O)O)CCN(CC(=O)O)CCN(CC(=O)O)CC2)C[C@@H]1C(=O)NCCn1cc(C23CC(C(=O)Nc4nnc(S(N)(=O)=O)s4)(C2)C3)nn1)C(N)=O)(c1ccc(O)cc1)c1ccc(O)cc1.[Lu+3] [Compound 108.3]    8.00 to 8.60
NS(=O)(=O)c1nnc(CC(=O)C23CC(c4cn(CCNC(=O)[C@H]5COCCN5C(=O)CC[C@H](NC(=O)[C@H](CCCCNC(=O)CN5CCN(CC(=O)O)CCN(CC(=O)O)CCN(CC(=O)O)CC5)NC(=O)c5n[nH]c6ccccc56)C(=O)O)nn4)(C2)C3)s1.[Lu+3] [Compound 118.4]    8.60 to 9.00
CC(CCC(=O)N[C@@H](CC(=O)N[C@@H](CNC(=O)N1CCN(C(=O)CN2CCN(CC(=O)O)CCN(CC(=O)O)CCN(CC(=O)O)CC2)C[C@H]1C(=O)NCCn1cc(C23CC(C(=O)Nc4nnc(S(N)(=O)=O)s4)(C2)C3)nn1)C(=O)O)C(=O)O)(c1ccc(O)cc1)c1ccc(O)cc1.[Lu+3] [Compound 107.55]    > 9.00

Now look at this one.
Identify pKd associated with the molecule CC(CCC(=O)N[C@@H](CC(=O)N[C@@H](CC(=O)N[C@@H](CCCCn1cc(C23CCC(C(=O)Nc4nnc(S(N)(=O)=O)s4)(CC2)C3)nn1)C(=O)N1CCC(NC(=O)CN2CCN(CC(=O)O)CCN(CC(=O)O)CCN(CC(=O)O)CC2)CC1)C(=O)O)C(=O)O)(c1ccc(O)cc1)c1ccc(O)cc1.[Lu+3] [Compound 100.12] > 9.00

====

target: human CA-IX (Homo sapiens); construct: purchased Acro CA9-H82E3; experiment: Surface Plasmon Resonance (SPR) binding kinetics to recombinant human CA-IX (Biacore 8K, single-cycle kinetics, 1:1 binding model); conditions: Chelated Metal: Lu-175; SPR, 25° C., pH 7.4; read-out: CAIX KD
pKd: −log10 of the molar value.
The reader will find reported pKd values listed item by item below.

CC(CCC(=O)N[C@@H](CC(=O)N[C@@H](CCC(=O)N1CCN(C(=O)CN2CCN(CC(=O)O)CCN(CC(=O)O)CCN(CC(=O)O)CC2)C[C@H]1C(=O)NCCn1cc(C23CC(C(=O)Nc4nnc(S(N)(=O)=O)s4)(C2)C3)nn1)C(=O)O)C(=O)O)(c1ccc(O)cc1)c1ccc(O)cc1.[Lu+3] [Compound 107.39]    > 9.00

In the following, a different compound is considered.
State its pKd for this compound: CC(CCCC(=O)N1CCC(C(N)=O)(C(=O)NCC(=O)N2CCN(C(=O)CN3CCN(CC(=O)O)CCN(CC(=O)O)CCN(CC(=O)O)CC3)C[C@H]2C(=O)NCCn2nnc(C34CC(C(=O)Nc5nnc(S(N)(=O)=O)s5)(C3)C4)c2C(=O)O)CC1)(c1ccc(O)cc1)c1ccc(O)cc1.[Lu+3] [Compound 107.58] > 9.00

====

target: human CA-XII (Homo sapiens, UniProt O43570); construct: purchased Creative BioMart CA12-261H; test: Surface Plasmon Resonance (SPR) binding kinetics to recombinant human CA-XII (Biacore 8K, single-cycle kinetics, 1:1 binding model); conditions: read-out: CAXII KD, Chelated Metal: Lu-175, 25° C., pH 7.4
Sequence (O43570 25-354): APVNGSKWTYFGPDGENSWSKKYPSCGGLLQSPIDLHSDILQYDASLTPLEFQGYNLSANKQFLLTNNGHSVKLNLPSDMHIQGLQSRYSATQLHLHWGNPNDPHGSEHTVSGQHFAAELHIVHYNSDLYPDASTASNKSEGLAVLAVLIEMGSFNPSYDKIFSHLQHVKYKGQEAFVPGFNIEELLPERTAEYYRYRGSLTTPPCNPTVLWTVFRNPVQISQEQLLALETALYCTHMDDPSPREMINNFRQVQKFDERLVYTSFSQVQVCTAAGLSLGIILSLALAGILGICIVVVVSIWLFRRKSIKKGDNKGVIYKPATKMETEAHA
Catalogue of Kd readings, one per entry.

Consider the reported Kd for these compounds:
NS(=O)(=O)c1nnc(NC(=O)C23CC(c4cn(CCNC(=O)[C@H]5CNCCN5C(=O)[C@H](CCCCNC(=O)CN5CCN(CC(=O)O)CCN(CC(=O)O)CCN(CC(=O)O)CC5)NC(=O)CC[C@H](NC(=O)CCC5CCCCC5)C(=O)O)nn4)(C2)C3)s1.[Lu+3] [Compound 118]    2.5 to 10 nM
CC(CCC(=O)N[C@@H](CC(=O)N[C@@H](CC(=O)N1CCN(C(=O)[C@H](CCC(=O)NCCOCCOCCOCCOCCOCCOCCOCCOCCC(=O)N[C@@H](CCCCNC(=O)CCCc2ccc(I)cc2)C(=O)O)NC(=O)CN2CCN(CC(=O)O)CCN(CC(=O)O)CCN(CC(=O)O)CC2)C[C@H]1C(=O)NCCn1cc(C23CC(C(=O)Nc4nnc(S(N)(=O)=O)s4)(C2)C3)nn1)C(=O)O)C(=O)O)(c1ccc(O)cc1)c1ccc(O)cc1.[Lu+3] (racemic) [Compound 125]    > 10 nM
CC(CCC(=O)N[C@@H](CC(=O)N[C@@H](CC(=O)N1CCN(C(=O)OCCOCCNC(=O)CN2CCN(CC(=O)O)CCN(CC(=O)O)CCN(CC(=O)O)CC2)C[C@@H]1CCCCn1cc(CCCC(=O)Nc2nnc(S(N)(=O)=O)s2)nn1)C(=O)O)C(=O)O)(c1ccc(O)cc1)c1ccc(O)cc1.[Lu+3] [Compound 124]    2.5 to 10 nM
CC(CCC(=O)N1CCOC[C@H]1C(=O)N[C@@H](CC(=O)N1CCN(C(=O)CN2CCN(CC(=O)O)CCN(CC(=O)O)CCN(CC(=O)O)CC2)C[C@@H]1Cn1cc(C23CC(C(=O)Nc4nnc(S(N)(=O)=O)s4)(C2)C3)nn1)C(=O)O)(c1ccc(O)cc1)c1ccc(O)cc1.[Lu+3] [Compound 114]    > 10 nM
CC(CCCC(=O)N1CCC(C(N)=O)(C(=O)NCC(=O)NC2(C(=O)NCCn3nnc(C45CC(C(=O)Nc6nnc(S(N)(=O)=O)s6)(C4)C5)c3C(N)=O)CCN(C(=O)CN3CCN(CC(=O)O)CCN(CC(=O)O)CCN(CC(=O)O)CC3)CC2)CC1)(c1ccc(O)cc1)c1ccc(O)cc1.[Lu+3] [Compound 136]    > 10 nM
CC(CCC(=O)N[C@@H](CC(=O)N[C@@H](CC(=O)N[C@@H](CCCCn1nnc(C(=O)O)c1C12CCC(C(=O)Nc3nnc(S(N)(=O)=O)s3)(CC1)CC2)C(=O)NCCOCCOCCNC(=O)CN1CCN(CC(=O)O)CCN(CC(=O)O)CCN(CC(=O)O)CC1)C(=O)O)C(=O)O)(c1ccc(O)cc1)c1ccc(O)cc1.[Lu+3] [Compound 122]    1 to 2.5 nM

Return value of Kd for input NC(=O)C1(C(=O)NCC(=O)N2CCN(C(=O)CN3CCN(CC(=O)O)CCN(CC(=O)O)CCN(CC(=O)O)CC3)C[C@H]2C(=O)NCCn2cc(C34CC(C(=O)Nc5nnc(S(N)(=O)=O)s5)(C3)C4)nn2)CCN(C(=O)c2ccc(C3CC3)nn2)CC1.[Lu+3] [Compound 113] , no commentary. > 10 nM

====

biological target: human CA-XII (Homo sapiens); construct: purchased Creative BioMart CA12-261H; assay: Surface Plasmon Resonance (SPR) binding kinetics to recombinant human CA-XII (Biacore 8K, single-cycle kinetics, 1:1 binding model); settings: Chelated Metal: Lu-175, 25° C., pH 7.4, read-out: CAXII KD
pKd: −log10 of the molar value.
readout.label: pKd

Some compounds with recorded pKd:
CC(CCC(=O)N[C@@H](CC(=O)N[C@@H](CC(=O)N[C@@H](CCCCn1cc([C@H]2CC[C@H](C(=O)Nc3nnc(S(N)(=O)=O)s3)CC2)nn1)C(=O)NCCOCCOCCNC(=O)CN1CCN(CC(=O)O)CCN(CC(=O)O)CCN(CC(=O)O)CC1)C(=O)O)C(=O)O)(c1ccc(O)cc1)c1ccc(O)cc1.[Lu+3]    8.00 to 8.60
NS(=O)(=O)c1nnc(NC(=O)C23CC(c4cn(CCNC(=O)[C@@H]5CN(C(=O)CN6CCN(CC(=O)O)CCN(CC(=O)O)CCN(CC(=O)O)CC6)CCN5C(=O)C[C@H](NC(=O)C[C@H](NC(=O)c5cnc(C6CC6)nc5)C(=O)O)C(=O)O)nn4)(C2)C3)s1.[Lu+3]    < 8.00

Please supply the value of reported pKd for the item CC(CCC(=O)N1CCOC[C@H]1C(=O)N[C@@H](CC(=O)N1CCN(C(=O)CN2CCN(CC(=O)O)CCN(CC(=O)O)CCN(CC(=O)O)CC2)C[C@@H]1C(=O)NCCn1cc(C23CC(C(=O)Nc4nnc(S(N)(=O)=O)s4)(C2)C3)nn1)C(=O)O)(c1ccc(O)cc1)c1ccc(O)cc1.[Lu+3] < 8.00

Hello, please tell me recorded pKd for this one: CC(CCC(=O)N[C@@H](CC(=O)N[C@@H](CC(=O)N[C@@H](CCCCn1cc(C23CCC(C(=O)Nc4nnc(S(N)(=O)=O)s4)(CC2)C3)nn1)C(=O)N1CCN(C(=O)CN2CCN(CC(=O)O)CCN(CC(=O)O)CCN(CC(=O)O)CC2)CC1)C(=O)O)C(=O)O)(c1ccc(O)cc1)c1ccc(O)cc1.[Lu+3] > 9.00
